tested on: NCI-H1975; experiment: Antiproliferative activity against human H1975 cells expressing EGFR L858R/T790M mutant assessed as cell growth inhibition measured after 72 hrs by MTT assay; assay type: functional, cell-based; settings: NCI-H1975, 72 h
Rule: measured IC50 below 2000 nM gets true (1); anything equal to or greater than 2000 nM gets false (0).

Solved entries (count: 4):
{"molecule": "CN(CCOCCOCCOCCOCCN1CCN(c2ccc(Nc3ncc4nc(Nc5ccccc5)n(C5CCCC5)c4n3)cc2)CC1)CC(=O)Nc1cccc2c1CN(C1CCC(=O)NC1=O)C2=O (stereo not drawn)", "group label": "false (0)"}
{"molecule": "Cc1ncsc1-c1ccc(CNC(=O)[C@@H]2C[C@H](O)CN2C(=O)[C@@H](NC(=O)CCCCCCN2CCN(c3ccc(Nc4ncc5nc(Nc6ccccc6)n(C6CCCC6)c5n4)cc3)CC2)C(C)(C)C)cc1", "group label": "false (0)"}
{"molecule": "Cc1ncsc1-c1ccc(CNC(=O)[C@@H]2C[C@@H](O)CN2C(=O)[C@@H](NCCOCCOCCOCCN2CCN(c3ccc(Nc4ncc5nc(Nc6ccccc6)n(C6CCCC6)c5n4)cc3)CC2)C(C)(C)C)cc1", "group label": "false (0)"}
{"molecule": "CN(CCOCCOCCN1CCN(c2ccc(Nc3ncc4nc(Nc5ccccc5)n(C5CCCC5)c4n3)cc2)CC1)CC(=O)Nc1cccc2c1CN(C1CCC(=O)NC1=O)C2=O (stereo not drawn)", "group label": "true (1)"}

Now for another entry.
Q: Does the reported IC50 of the following molecule sit strictly below 2000 nM? Cc1ncsc1-c1ccc(CNC(=O)[C@@H]2C[C@@H](O)CN2C(=O)[C@@H](NCCOCCOCCN2CCN(c3ccc(Nc4ncc5nc(Nc6ccccc6)n(C6CCCC6)c5n4)cc3)CC2)C(C)(C)C)cc1
A: true (1)
